Reference source: paper PMC12388504

# pIC50 per entry
- Test system: T. cruzi epimastigotes A1 strain
- measurement.description: Anti-Trypanosoma cruzi activity, epimastigotes A1 strain (MTT)
- Format: cell-based
- condition.summary: Trypanosoma cruzi; epimastigotes, A1 strain, 48 h, MTT; read-out: T. cruzi IC50 A1
pIC50: −log10 of the molar value.
reported.metric: pIC50

>>> endpoint_result("OCc1ccccc1 [Compound 1, benzyl alcohol]")
4.21
>>> endpoint_result("CC1=CC[C@@H](C(C)(C)O)CC1 [Compound 16, α-terpineol]")
4.85
>>> endpoint_result("CC1CS(=O)(=O)CCN1/N=C/c1ccc([N+](=O)[O-])o1 (stereo not shown) [Nfx, Nifurtimox, reference compound]")
5.15
>>> endpoint_result("CC(C)=CCCC(C)CCO (stereo not drawn) [Compound 11, β-citronellol]")
4.67
>>> endpoint_result("CC(C)=CCC/C(C)=C/CO [Compound 12, geraniol]")
3.90
>>> endpoint_result("OC1CCCC1 [Compound 18, cyclopentyl alcohol]")
4.97

---

- Test system: L. mexicana promastigotes FCQEPS native isolate
- measurement.description: Anti-Leishmania mexicana activity, promastigotes FCQEPS native isolate (MTT)
- Assay type: cell-based
- condition.summary: Leishmania mexicana, 48 h, promastigotes, FCQEPS native isolate, MTT, read-out: L. mexicana IC50 FCQEPS
pIC50: −log10 of the molar value.
reported.metric: pIC50

>>> endpoint_result("OCC=Cc1ccccc1")
4.54
>>> endpoint_result("OCCc1ccccc1")
4.37
>>> endpoint_result("OC1CCCC1")
3.90
>>> endpoint_result("OCc1ccccc1")
3.98
>>> endpoint_result("CC1=CC[C@@H](C(C)(C)O)CC1")
4.12
>>> endpoint_result("OCc1ccc2ccccc2c1")
3.90

---

- Tested on: T. cruzi epimastigotes A1 strain
- measurement.description: Anti-Trypanosoma cruzi activity, epimastigotes A1 strain (MTT)
- Type: cell-based
- condition.summary: Trypanosoma cruzi; epimastigotes, A1 strain, 48 h, MTT; read-out: T. cruzi IC50 A1
reported.metric: IC50 (µM)

>>> endpoint_result("O=C(Cn1ccnc1[N+](=O)[O-])NCc1ccccc1 [Bzn, Benznidazole, reference compound]")
30.3
>>> endpoint_result("Cc1ccc(CO)cc1")
50.4
>>> endpoint_result("OCC=Cc1ccccc1")
22.1

---

- Tested on: T. cruzi epimastigotes NINOA strain
- measurement.description: Anti-Trypanosoma cruzi activity, epimastigotes NINOA strain (MTT)
- Assay type: cell-based
- condition.summary: Trypanosoma cruzi, 48 h, read-out: T. cruzi IC50 NINOA
reported.metric: IC50 (µM)

>>> endpoint_result("CC(C)=CCC/C(C)=C\\CO")
58.3

---

- Test system: T. cruzi epimastigotes A1 strain
- measurement.description: Anti-Trypanosoma cruzi activity, epimastigotes A1 strain (MTT)
- Type: cell-based
- condition.summary: Trypanosoma cruzi; epimastigotes, A1 strain, 48 h, MTT; read-out: T. cruzi IC50 A1
pIC50: −log10 of the molar value.
reported.metric: pIC50

>>> endpoint_result("CC(C)[C@H]1CC[C@H](C)C[C@@H]1O [Compound 14, l-(-)-menthol]")
"< 3.70"
>>> endpoint_result("C=C(C)[C@H]1CC=C(CO)CC1")
"< 3.70"
>>> endpoint_result("OCc1ccc2ccccc2c1")
"< 3.70"
